Give melting point for every item shown.
Structures can show the parent of a compound that is named as a salt.

Report melting point for CON(C)C(=O)c1cc(O)cc2cc(-c3ccc(O)cc3)oc12 125 to 127 °C

Report melting point for COC(=O)C=Cc1cc(O)cc2cc(-c3ccc(O)cc3)oc12 231 to 234 °C

Report melting point for CCCOC(=O)c1cc(O)cc2cc(-c3ccc(O)cc3)oc12 220 to 222 °C

Report melting point for CC(C#N)c1cc(O)cc2cc(-c3ccc(O)cc3)oc12 (stereo not shown) 183 to 185 °C

Report melting point for CC(C)OCc1cc(O)cc2cc(-c3ccc(O)cc3)oc12 195 to 197 °C

Report melting point for N#Cc1c(O)ccc2oc(-c3ccc(O)cc3)cc12 > 230 °C

Report melting point for COCc1cc(O)cc2cc(-c3ccc(O)cc3)oc12 186 to 188 °C

Report melting point for Oc1ccc(-c2cc3cc(O)cc(CSc4ccccc4)c3o2)cc1 175 to 177 °C

Report melting point for Oc1ccc(-c2cc3cc(O)ccc3o2)c(-c2ccc(OCCN3CCCC3)cc2)c1 (as salt: hydrochloride) 266 to 269 °C

Report melting point for OCc1cc(O)cc2cc(-c3ccc(O)cc3)oc12 258 to 260 °C

Report melting point for CC(C)(C)c1ccc2oc(-c3ccc(O)cc3)cc2c1 172 to 174 °C

Report melting point for COc1ccc(-c2cc3cc(OC)cc(CO)c3o2)cc1 128 to 130 °C

Report melting point for COc1cc(O)c(C=NO)c2cc(-c3ccc(O)cc3)oc12 205 °C (dec.)

Report melting point for Oc1ccc(-c2cc3cc(O)ccc3o2)c(Br)c1 195 °C

Report melting point for CCc1cc(O)cc2cc(-c3ccc(O)cc3)oc12 218 to 220 °C

Report melting point for COC(=O)c1cc(O)cc2cc(-c3ccc(O)cc3)oc12 236 to 238 °C

Report melting point for CC(C)c1cc(O)cc2cc(-c3ccc(O)cc3)oc12 192 to 194 °C

Report melting point for CSCc1cc(O)cc2cc(-c3ccc(O)cc3)oc12 188 to 190 °C

Report melting point for Oc1ccc(-c2cc3c(Br)c(O)cc(Br)c3o2)cc1 215 to 217 °C

Report melting point for Oc1ccc(-c2cc3cc(Br)cc(Br)c3o2)cc1 203 to 205 °C

Report melting point for N#CSCc1cc(O)cc2cc(-c3ccc(O)cc3)oc12 190 to 192 °C

Report melting point for Oc1ccc(-c2cc3cc(O)cc(-c4nnco4)c3o2)cc1 260 to 266 °C
